Tested on: SR leukemia
Test: NCI tumour cell line growth inhibition, 48 h; in the data active = GI50 below about 0.43 µM; inactive = the rest
Respond with a class label; see active, inactive

Example entries and their recorded answers appear below.
Which outcome did this test record for the molecule COc1cc(OC)cc(-c2nc3sccn3c2/C=N/N=C(N)N)c1 ?
inactive

Which outcome did this test record for the molecule C=C1C(=O)O[C@H]2[C@H]1CC/C(Cn1cc(Cc3c[nH]c4ccccc34)nn1)=C\CC[C@@]1(C)O[C@@H]21 ?
active

Which outcome did this test record for the molecule COc1cc(OC)c(/C=C/C(=O)c2ccc(Nc3ncnc4ccccc34)cc2)c(OC)c1 ?
active

Which outcome did this test record for the molecule CCN(CC)CCCOc1ccc2ncnc(Nc3ccc(Oc4cccc(C(F)(F)F)c4)c(Cl)c3)c2c1 ?
inactive

Please find the next molecule below.
Which outcome did this test record for the molecule CCN1C(=O)N(CC)C2C1NN=c1s/c(=C\c3cccs3)c(=O)n12 (stereo not given) ?
active

###

Below are GI50 values recorded for NCI-H460 lung.
*1 amine or outer side, *2 acyl side, *3 side chain or, on linkers, in order; H or OH if unused. Where a SMILES comes first, the peptide text is derived from it. Bridges are numbered along the chain shown (N, C = ends). Roman numbers before positions name the chains, in order. [ ]: non-standard residue; d: D form. Actinocin(9to1) = Cc1c2oc3c(C)ccc(C(=O)[*:1])c3nc-2c(C(=O)[*:2])c(N)c1=O; NMeV = CN[CH](C(=O)O)C(C)C; Sar = CNCC(=O)O

The measured GI50 associated with CCN(CC)CCCOc1ccc2ncnc(Nc3ccc(Oc4cccc(C(F)(F)F)c4)c(Cl)c3)c2c1 reads 1780 nM

List the reported GI50 of each compound below.
1. Cc1c2oc3c(C)ccc(C(=O)OC(C)C4NC(=O)C(C(C)C)N(C)C(=O)CN(C)C(=O)C5CCCN5C(=O)C(C(C)C)NC4=O)c3nc-2c(C(=O)OC(C)C2NC(=O)C(C(C)C)N(C)C(=O)CN(C)C(=O)C3CCCN3C(=O)C(C(C)C)NC2=O)c(N)c1=O (stereo unspecified) (I: cyclo([Sar][NMeV]TVP) / II: cyclo([Sar][NMeV]TVP); linker I:3-II:3 via Actinocin(9to1); configuration not given here)
2. C[C@]12CC[C@@H]3c4ccc(O)cc4CC[C@H]3[C@@H]1CC[C@@H]2NS(=O)(=O)c1cccc(Cl)c1
3. Cc1cc(C(=O)Nc2cc(Oc3ccc4nc(NC(=O)C5CC5)cn4n3)ccc2C)n(C)n1
4. CC(=O)O[C@@]12CO[C@@H]1C[C@H](O)[C@@]1(C)C(=O)[C@H](O)C3=C(C)[C@@H](OC(=O)[C@H](O)[C@@H](NC(=O)OC(C)(C)C)c4ccccc4)C[C@@](O)([C@@H](OC(=O)c4ccccc4)C12)C3(C)C (stereo partly specified)
5. C=C1C(=O)O[C@H]2[C@H]1CC/C(Cn1cc(Cc3c[nH]c4ccccc34)nn1)=C\CC[C@@]1(C)O[C@@H]21
6. COC12C=C/C(=C(/C(=O)OCCSc3ccnn3C)C(=O)CCCCCCCCC3(OC)C=C/C(=C(/C(=O)OCCSc4ccnn4C)C(=O)CCCCCCCC1)O3)O2
7. Cc1ccc(-c2c(C#N)[n+](=O)c3cc(F)c(F)cc3n2[O-])cc1
8. CCC[CH2][Sn]([CH2]CCC)([CH2]CCC)[O]C(=O)C(OC(C)=O)c1ccccc1 (stereo unspecified)

< 10 nM
2240 nM
> 10000 nM
< 5 nM
3510 nM
1070 nM
12200 nM
138 nM

List the reported GI50 of each compound below.
1. CCCCC[C@H]1CC=C2C(=O)C=C[C@@H]2CC=CCCCC(=O)O[C@@H](CCCCC)CC=C2C(=O)C=C[C@@H]2CC=CCCCC(=O)O[C@@H](CCCCC)CC=C2C(=O)C=C[C@@H]2CC=CCCCC(=O)O1
2. Nc1ncnc2c1c(-c1ccc(Oc3ccccc3)cc1)nn2C[C@H]1SSC[C@@H]1O

["488 nM", "44.5 nM"]

###

Tested on: MALME-3M melanoma
Assay: NCI tumour cell line growth inhibition, 48 h
Answer each item with its documented TGI.

Solved entries:
Form field TGI for item O=C1NC(O)c2ccccc2O1 (stereo not given) on MALME-3M melanoma: > 100 µM

Form field TGI for item CCCCC[C@H]1CC=C2C(=O)C=C[C@@H]2CC=CCCCC(=O)O[C@@H](CCCCC)CC=C2C(=O)C=C[C@@H]2CC=CCCCC(=O)O[C@@H](CCCCC)CC=C2C(=O)C=C[C@@H]2CC=CCCCC(=O)O1 on MALME-3M melanoma: > 8.75 µM

Form field TGI for item N/C(=N\NC(=O)c1nc2ccccc2s1)c1ccccn1 on MALME-3M melanoma: > 100 µM

Form field TGI for item Brc1c2nc3ccccc3nc2n2ccc3ccccc3c12 on MALME-3M melanoma: > 100 µM

# input for lookup
Form field TGI for item NC(=S)Nc1ccc2c(c1)oc1ccccc12 on MALME-3M melanoma: > 100 µM

###

System: TK-10 renal
Assay: NCI tumour cell line growth inhibition, 48 h
Measurement Type: TGI

Solved entries:
The measured TGI associated with O=C(O)C1CCN(Cc2oc(CO)cc(=O)c2O)C1 (stereo not drawn) reads > 100 µM

The measured TGI associated with O=C1C=CC(=O)C2C1Cc1ccccc1C2c1ccccc1 (stereo not drawn) reads > 100 µM

List the reported TGI of each molecule below.
1. Cc1ccc2[nH]c3c(c2c1)N=c1ccccc1=NO3
2. N#CNC(=NCc1ccccc1)NCCc1c[nH]c2ccccc12
3. CCCCOc1c(C(=O)O)cc(Br)cc1C(=O)O
4. Cc1cc(C(=O)Nc2cc(Oc3ccc4nc(NC(=O)C5CC5)cn4n3)ccc2C)n(C)n1
5. O=P(O)(O)OCC1OC(n2cnc3c(NCc4ccco4)ncnc32)C(O)C1O (stereo not drawn)
6. Clc1ccccc1[C@@H]1C[C@@H]2Cc3cc(Br)c4ccccc4c3N1O2
7. CC(=O)NNc1nc(C)c(C(/C=C/c2ccc([N+](=O)[O-])cc2)=N/NC(N)=O)s1

1: > 100 µM; 2: > 100 µM; 3: > 100 µM; 4: > 10 µM; 5: > 43.9 µM; 6: > 100 µM; 7: > 100 µM

###

System: A549 NSCLC
Experiment: NCI tumour cell line growth inhibition, 48 h; in the data active = GI50 below about 0.43 µM; inactive = the rest
Respond with a class label; see y = active, n = inactive

Which outcome did this test record for the compound COc1cc2c3c(n(CCCCNC(=O)OC(C)(C)C)c(=O)c2cc1OC)-c1cc2c(cc1C3=O)OCO2 ?
n

###

Answer each item with its documented TGI.
System: SNB-78 CNS
Test: NCI tumour cell line growth inhibition, 48 h

Solved entries:
The measured TGI associated with O=C(N/C(=C\c1c(O)ccc2ccccc12)c1nc2ccccc2[nH]1)c1ccccc1 reads > 100 µM

The measured TGI associated with CC(CN1CC(=O)NC(=O)C1)N1CC(=O)NC(=O)C1 (stereo not drawn) reads > 750 µM

# input for lookup
The measured TGI associated with COC1=CC(=O)C2C(C1=O)[C@@H]1c3ccccc3OC(C)(C)[C@H]21 (stereo partly drawn) reads 41.5 µM

###

Answer each item with its documented TGI.
Tested on: CCRF-CEM leukemia
Test: NCI tumour cell line growth inhibition, 48 h

List the reported TGI of each molecule below.
1. COc1ccc(-c2nsc3c2NC(=O)CC3c2ccc3c(c2)OCCO3)cc1 (configuration not stated)
2. CN(C)C[C@H]1CCn2c(c(C3=C(c4cn(C)c5ccccc45)C(=O)NC3=O)c3ccccc32)C1

1: > 100 µM; 2: 12.4 µM

List the reported TGI of each molecule below.
1. C/C=C/c1cc2c(c(=O)o1)C(=O)[C@@H](O)[C@H](C)O2
2. O=S(c1ccccc1)C1CC2CC3(CCC21O)OCCO3 (configuration not stated)
3. Cc1ccc2n(c1)cc(-c1ccc(/C=N/NC(=N)N/N=C/c3ccc(-c4cn5cc(C)ccc5[n+]4C)cc3)cc1)[n+]2C
4. C=C1C(=O)O[C@H]2[C@H]1CC/C(Cn1cc(Cc3c[nH]c4ccccc34)nn1)=C\CC[C@@]1(C)O[C@@H]21
5. NC(=O)COc1c(Br)cc(Br)cc1Br
6. CCNC(=O)NNc1ncnc2c1c(-c1ccc(Cl)cc1)cn2-c1ccc(C)cc1
7. COc1ccc2c3c(c(C(=O)O)oc13)CCC2
8. O=C1OCC(c2ccc(O)cc2)=C1c1cc(O)c(O)c(O)c1

53.9 µM
> 100 µM
> 100 µM
5.92 µM
> 100 µM
43.1 µM
> 100 µM
> 100 µM

List the reported TGI of each molecule below.
1. COc1cc(OC)c(/C=C/C(=O)c2ccc(Nc3ncnc4ccccc34)cc2)c(OC)c1
2. CO[C@H]1CC[C@]2(C)C3=CC[C@@]4(C)C(CC[C@@H]4C(C)CC[C@@H](C)C(C)C)C(=CCC2C1)O3 (some centres not stated)

["5.51 µM", "> 25 µM"]

List the reported TGI of each molecule below.
1. COc1ccc(C(C#N)=C2C=CC(=NO)C=C2)cc1
2. CCOc1cc(C(=O)O)c2c(ccc3ccc(OC)c(OC)c32)c1OC
3. Cc1c(OCCCOc2ccc3c(=O)cc(-c4ccccc4)oc3c2C)ccc2c(=O)cc(-c3ccccc3)oc12
4. Cc1cc(C(=O)Nc2cc(Oc3ccc4nc(NC(=O)C5CC5)cn4n3)ccc2C)n(C)n1
5. CC(C(=O)NCCNC(=O)CCC(=O)N(C)O)C(=O)NCCNC(=O)CCC(=O)N(C)O
6. O=C1C=CC(=O)C2C1Cc1ccccc1C2c1ccccc1 (configuration not stated)
7. O=C(/C=C/c1ccc(OCc2ccccc2)cc1)NCc1ccc(C(=O)NCc2ccccc2)cc1
8. CCOC(=O)CCC(NC(=O)c1ccc(Nc2nc3cc(C(F)(F)F)ccc3nc2C(=O)OCC)cc1)C(=O)OCC (configuration not stated)

1. > 100 µM
2. > 100 µM
3. > 100 µM
4. > 10 µM
5. > 100 µM
6. 68.7 µM
7. > 100 µM
8. > 100 µM

List the reported TGI of each molecule below.
1. CCCCC[C@H]1CC=C2C(=O)C=C[C@@H]2CC=CCCCC(=O)O[C@@H](CCCCC)CC=C2C(=O)C=C[C@@H]2CC=CCCCC(=O)O[C@@H](CCCCC)CC=C2C(=O)C=C[C@@H]2CC=CCCCC(=O)O1
2. O=C(Nc1cc(Cl)ccc1Cl)c1cc2cccc(Br)c2oc1=O

1. > 8.75 µM
2. > 100 µM
